These measurements were taken from ChEMBL document CHEMBL1130554.

system: HepG2; test: Tested for the effective concentration required to inhibit HBV in HepG2.2.15 human liver cells; format: functional, cell-based
// pEC50 lookup, one value per entry
pEC50 here is simply -log10 of the concentration when that concentration is written in mol/L.

Look over these answered cases.
Compound | pEC50
Nc1ccn([C@@H]2CS[C@H](CO)O2)c(=O)n1 [LAMIVUDINE] | 6.70
C=C1[C@H](CO)[C@@H](O)C[C@@H]1n1cnc2c(=O)[nH]c(N)nc21 [ENTECAVIR] | 8.52
Nc1nc(O)c2ncn([C@@H]3C[C@H](CO)[C@@H](O)C3)c2n1 | 7.30

Read the next record carefully.
Asked: Could you tell me which pEC50 is on file for "C=C1[C@@H](CO)[C@H](O)C[C@H]1n1cnc2c(O)nc(N)nc21" ?
Given back: 4.00

----------
tested on: HepG2; assay: Tested for the effective concentration required to inhibit HBV in HepG2.2.15 human liver cells; assay type: functional, cell-based
Assay Readout: EC50 (µM)
Give the number; µM is assumed, so skip it.

Structure String | Test Target | EC50, µM
C=C1[C@H](CO)[C@@H](O)C[C@@H]1n1cnc2c(N)ncnc21 | HepG2 | 0.128

Asked: Could you tell me which EC50 is on file for "C=C1[C@H](CO)[C@@H](O)C[C@@H]1n1cc(I)c(=O)[nH]c1=O" ?
Given back: 10.5
